ASSAY SYSTEM: TG2 (Homo sapiens (Human))
Sequence (P21980 whole entry): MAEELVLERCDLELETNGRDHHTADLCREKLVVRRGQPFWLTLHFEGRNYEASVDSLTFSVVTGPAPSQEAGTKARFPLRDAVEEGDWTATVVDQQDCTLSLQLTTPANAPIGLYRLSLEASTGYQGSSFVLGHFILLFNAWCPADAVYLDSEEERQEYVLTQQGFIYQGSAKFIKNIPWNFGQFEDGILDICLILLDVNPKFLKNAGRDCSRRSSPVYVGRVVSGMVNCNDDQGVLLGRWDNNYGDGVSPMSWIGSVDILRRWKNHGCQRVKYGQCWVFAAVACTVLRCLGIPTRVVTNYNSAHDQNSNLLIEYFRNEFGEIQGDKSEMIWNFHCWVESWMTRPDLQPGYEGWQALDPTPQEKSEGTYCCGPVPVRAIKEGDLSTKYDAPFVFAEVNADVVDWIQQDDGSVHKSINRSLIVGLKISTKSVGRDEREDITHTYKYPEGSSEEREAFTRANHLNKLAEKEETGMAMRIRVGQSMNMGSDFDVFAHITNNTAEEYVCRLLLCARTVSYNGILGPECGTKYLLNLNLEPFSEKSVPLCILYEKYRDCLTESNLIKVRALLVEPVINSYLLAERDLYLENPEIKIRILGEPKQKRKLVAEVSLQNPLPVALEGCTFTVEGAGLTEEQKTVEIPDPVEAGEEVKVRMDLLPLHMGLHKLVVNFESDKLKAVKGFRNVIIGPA
ASSAY NOTES: Transglutaminase (TG) Inhibitor Assay
Assay type: biochemical
ASSAY CONTEXT: fluorescence of dansyl cadaverine cross-linked into N,N-dimethylated casein; 8 point titration

MOLECULE	IC50
COC(=O)N[C@@H](CC/C=C/C(=O)N(C)C)C(=O)Nc1cncn(Cc2nc3cc(F)ccc3n2C)c1=O	5000 to 100000 nM
COC(=O)N(C)[C@@H](CC/C=C/C(=O)N(C)C)C(=O)Nc1cccn(Cc2nc3cccc(OCc4ccc(F)cc4F)c3[nH]2)c1=O	< 500 nM
COC(=O)N[C@@H](CC/C=C/C(=O)N(C)C)C(=O)Nc1cc(F)c(C)n(Cc2nc3c(F)cnc(CC(C)C)c3[nH]2)c1=O	< 500 nM
[2H]C([2H])(C/C=C/C(=O)N(C)C)C(OC(=O)N(C)C)C(=O)Nc1cccn(Cc2cc3cc(F)cc(CC(C)C)c3n2C(=O)OC(C)(C)C)c1=O (centres unmarked)	500 to 5000 nM
COC(=O)N[C@@H](CC/C=C/C(=O)N(C)C)C(=O)Nc1cccn(Cc2nc3c(CC(C(F)(F)F)C(F)(F)F)cccc3n2C(=O)OC(C)(C)C)c1=O	500 to 5000 nM
CN(C)C(=O)/C=C/CC[C@H](OC(=O)N(C)C)C(=O)Nc1cccn(Cc2nc3cc(F)ccc3n2Cc2ccc(F)cc2)c1=O	500 to 5000 nM
CN(C)C(=O)/C=C/CC[C@H](OC(=O)N(C)C)C(=O)Nc1cccn(Cc2nc3ccc(F)cc3n2Cc2ccc(F)cc2)c1=O	500 to 5000 nM
CN(C)C(=O)/C=C/CC[C@H](NC(=O)OC(C)(C)C)C(=O)Nc1cccn(Cc2nc3cccc(C(O)C(C)(C)C)c3[nH]2)c1=O (some centres unmarked)	< 500 nM
COC(=O)N[C@@H](CC/C=C/C(=O)N(C)C)C(=O)Nc1cccn(Cc2cc3c(F)cnc(C=C(C)C)c3[nH]2)c1=O	< 500 nM
COC(=O)N[C@@H](CC/C=C/C(=O)N(C)C)C(=O)Nc1cccn(Cc2nc3c(CC(C)C)c(F)cnc3[nH]2)c1=O	< 500 nM
COC(=O)N[C@@H](CC/C=C/C(=O)N(C)C)C(=O)Nc1cncn(Cc2nc3cc(F)cc(CCC(F)(F)F)c3[nH]2)c1=O	< 500 nM
CN(C)C(=O)/C=C/CC[C@H](OC(=O)N(C)C)C(=O)Nc1cccn(Cc2nc3ccc(F)cc3n2Cc2ccccc2)c1=O	500 to 5000 nM
[2H]C([2H])(C/C=C/C(=O)N(C)C)C(OC(=O)N(C)C)C(=O)Nc1cccn(Cc2cc3cc(F)ccc3n2C(=O)OC(C)(C)C)c1=O (centres unmarked)	< 500 nM
COC(=O)N[C@@H](CC/C=C/C(=O)N(C)C)C(=O)Nc1cccn(Cc2cc3ncnc(CC(C)C)c3[nH]2)c1=O	< 500 nM
COCc1ccc(NC(=O)[C@H](CC/C=C/C(=O)N(C)C)NC(=O)OC)c(=O)n1Cc1nc2c(F)cnc(CC(C)C)c2[nH]1	< 500 nM
[2H]C([2H])(C/C=C/C(=O)N(C)C)C(OC(=O)N(C)C)C(=O)Nc1cccn(Cc2nc3cc(F)ccc3[nH]2)c1=O (centres unmarked) [Compound 55]	500 to 5000 nM
CN(C)C(=O)/C=C/CC[C@H](OC(=O)N(C)C)C(=O)Nc1ccnn(Cc2nc3cc(F)cc(CC(C)(C)C)c3[nH]2)c1=O	< 500 nM
[2H]C([2H])(C/C=C/C(=O)N(C)C)C(OC(=O)N(C)C)C(=O)Nc1cccn(Cc2cc3cc(F)cc(CC(C)C)c3[nH]2)c1=O (centres unmarked)	< 500 nM
CC(C)Cn1c(Cn2ccnc(NC(=O)[C@H](CC/C=C/C(=O)N(C)C)OC(=O)N(C)C)c2=O)cc2cc(F)ccc21	< 500 nM
[2H]C([2H])(C/C=C/C(=O)N(C)C)C(OC(=O)N(C)C)C(=O)Nc1cccn(Cc2cc3cccc(CC(C)C)c3n2C(=O)OC(C)(C)C)c1=O (centres unmarked)	500 to 5000 nM

###

ASSAY SYSTEM: TG2 (Homo sapiens (Human))
ASSAY NOTES: Transglutaminase (TG) Inhibitor Assay
Format: biochemical
ASSAY CONTEXT: fluorescence of dansyl cadaverine cross-linked into N,N-dimethylated casein; 8 point titration; listed as 101

COMPOUND	IC50
COCc1ccc(NC(=O)[C@H](CC/C=C/C(=O)N(C)C)NC(=O)OC)c(=O)n1Cc1nc2c(F)cnc(CC(C)C)c2[nH]1 [Compound 599]	500 to 5000 nM

###

ASSAY SYSTEM: TG2 (Homo sapiens (Human))
ASSAY NOTES: Transglutaminase (TG) Inhibitor Assay
Type: biochemical
ASSAY CONTEXT: fluorescence of dansyl cadaverine cross-linked into N,N-dimethylated casein; 8 point titration
Method: Using the fluorescent amine donor, dansyl cadaverine (DSC), and the multiple glutamine bearing amine acceptor N,N-dimethylated casein (NMC), TG activity was measured via the change in fluorescence of cross-linked DSC into NMC over time.
molecules and their reported IC50

MOLECULE	IC50
[2H]C([2H])(C/C=C/C(=O)N(C)C)C(OC(=O)N(C)C)C(=O)Nc1cccn(Cc2nc3cc(F)ccc3[nH]2)c1=O (stereo not shown) [Compound 54]	500 to 5000 nM
CC(C)Cc1cccc2c1nc(Cn1cccc(NC(=O)[C@H](CC/C=C/C(N)=O)NC(=O)OCc3ccccc3)c1=O)n2C(=O)OC(C)(C)C	< 500 nM
COC(=O)N[C@@H](CC/C=C/C(=O)N(C)C)C(=O)Nc1cccn(Cc2cc3ncc(F)c(CC4CCC4)c3[nH]2)c1=O	< 500 nM
[2H]C([2H])(C/C=C/C(=O)N(C)C)C(OC(=O)N(C)C)C(=O)Nc1cccn(Cc2cc3cc(F)cc(OCc4ccc(F)cc4F)c3n2C(=O)OC(C)(C)C)c1=O (stereo not shown)	5000 to 100000 nM
